test: Distribution coefficient, shake-flask n-octanol/buffered aqueous solution pH 7.40; assay type: physicochemical; details: n-octanol/buffered aqueous solution, pH 7.4; n-octanol/water partitioning, pH 7.40, 25 °C; read-out: log D7.4
Overview of reported logD at 3 h across a group of molecules:
MEASUREMENT_KIND: logD at 3 h

- STRUCTURE_NOTATION: "Oc1cccc2ccc(/C=N/CCN3CCOCC3)nc12"
  RESULT: 0.64
- STRUCTURE_NOTATION: "Oc1cccc2ccc(/C=N/CCCN3CCOCC3)nc12"
  RESULT: 0.76
- STRUCTURE_NOTATION: "Oc1cccc2ccc(/C=N/CCN3CCCCC3)nc12"
  RESULT: 0.63
